Tested on: Pulicinae
Test: In vitro systemic flea efficacy using membrane feeding assay.
Format: functional

- compound: "C=C(C)[C@H]1C(=O)c2c3c(cc4c5c(n1c24)[C@@]1(C)C(CC[C@H]2[C@](C)(/C=C/C=C/P(=O)(OCC)OCC)[C@@H](O)CC[C@@]21C)C5)C1=CC(C)(C)OC(C)(C)C1[C@@H]3O (stereo not given in full)"
  measurement.units: "p.p.m."
  qualifier.symbol: "="
  Activity: 10
- compound: "C=C(C)[C@H]1C(=O)c2c3c(cc4c5c(n1c24)[C@@]1(C)C(CC[C@H]2[C@](C)(/C=C/C=C/C(=O)N4CCCC4)[C@@H](O)CC[C@@]21C)C5)C1=CC(C)(C)OC(C)(C)C1[C@@H]3O (stereo not given in full)"
  measurement.units: "p.p.m."
  qualifier.symbol: "="
  Activity: 1
- compound: "C=C(C)[C@H]1C(=O)c2c3c(cc4c5c(n1c24)[C@@]1(C)C(CC[C@H]2[C@](C)(/C=C/C=C(\\F)C(=O)NC(C)(C)C)[C@@H](O)CC[C@@]21C)C5)C1=CC(C)(C)OC(C)(C)C1[C@@H]3O (stereo not given in full)"
  measurement.units: "p.p.m."
  qualifier.symbol: "="
  Activity: 1
- compound: "C=C(C)[C@H]1C(=O)c2c3c(cc4c5c(n1c24)[C@@]1(C)C(CC[C@H]2[C@](C)(/C=C/C=C/C(=O)NC(C)(C)C)[C@@H](O)CC[C@@]21C)C5)C1=CC(C)(C)OC(C)(C)C1[C@@H]3O (stereo not given in full)"
  measurement.units: "p.p.m."
  qualifier.symbol: "="
  Activity: 1
- compound: "C=C(C)[C@H]1C(=O)c2c3c(cc4c5c(n1c24)[C@@]1(C)C(CC[C@H]2[C@](C)(/C=C/C=C/C(=O)OCc4ccccc4)[C@@H](O)CC[C@@]21C)C5)C1=CC(C)(C)OC(C)(C)C1[C@@H]3O (stereo not given in full)"
  measurement.units: "p.p.m."
  qualifier.symbol: "="
  Activity: 10
- compound: "C=C(C)[C@H]1C(=O)c2c3c(cc4c5c(n1c24)[C@@]1(C)C(CC[C@H]2[C@](C)(/C=C/C=C/C(=O)OC(C)(C)C)[C@@H](O)CC[C@@]21C)C5)C1=CC(C)(C)OC(C)(C)C1[C@@H]3O (stereo not given in full)"
  measurement.units: "p.p.m."
  qualifier.symbol: "="
  Activity: 10
- compound: "C=C(C)[C@H]1C(=O)c2c3c(cc4c5c(n1c24)[C@@]1(C)C(CC[C@H]2[C@](C)(/C=C/C(C)=C/C(=O)NC(C)(C)C)[C@@H](O)CC[C@@]21C)C5)C1=CC(C)(C)OC(C)(C)C1[C@@H]3O (stereo not given in full)"
  measurement.units: "p.p.m."
  qualifier.symbol: "="
  Activity: 10
- compound: "C=C(C)[C@H]1C(=O)c2c3c(cc4c5c(n1c24)[C@@]1(C)C(CC[C@H]2[C@](C)(/C=C/C=C(\\OC)C(=O)NC(C)(C)C)[C@@H](O)CC[C@@]21C)C5)C1=CC(C)(C)OC(C)(C)C1C3 (stereo not given in full)"
  measurement.units: "p.p.m."
  qualifier.symbol: ">"
  Activity: 10
- compound: "C=C(C)[C@H]1C(=O)c2c3c(cc4c5c(n1c24)[C@@]1(C)C(CC[C@H]2[C@](C)(/C=C/C=C(\\OC)C(N)=O)[C@@H](O)CC[C@@]21C)C5)C1=CC(C)(C)OC(C)(C)C1[C@@H]3O (stereo not given in full)"
  measurement.units: "p.p.m."
  qualifier.symbol: "="
  Activity: 10
- compound: "C=C(C)[C@H]1C(=O)c2c3c(cc4c5c(n1c24)[C@@]1(C)C(CC[C@H]2[C@](C)(/C=C/C=C(\\C#N)C(=O)N4CCCC4)[C@@H](O)CC[C@@]21C)C5)C1=CC(C)(C)OC(C)(C)C1[C@@H]3O (stereo not given in full)"
  measurement.units: "p.p.m."
  qualifier.symbol: "="
  Activity: 10
- compound: "C=C(C)[C@H]1C(=O)c2c3c(cc4c5c(n1c24)[C@@]1(C)C(CC[C@H]2[C@](C)(/C=C/C=C/C(C)=O)[C@@H](O)CC[C@@]21C)C5)C1=CC(C)(C)OC(C)(C)C1[C@@H]3O (stereo not given in full)"
  measurement.units: "p.p.m."
  qualifier.symbol: "="
  Activity: 10
- compound: "C=CC/C(=C\\C=C\\[C@]1(C)[C@@H](O)CC[C@@]2(C)[C@H]1CCC1Cc3c(n4c5c(c6c(cc35)C3=CC(C)(C)OC(C)(C)C3[C@@H]6O)C(=O)[C@@H]4C(=C)C)[C@@]12C)C(=O)NCC (stereo not given in full)"
  measurement.units: "p.p.m."
  qualifier.symbol: "="
  Activity: 1
- compound: "C=C(C)[C@H]1C(=O)c2c3c(cc4c5c(n1c24)[C@@]1(C)C(CC[C@H]2[C@](C)(/C=C/C=C(\\CC)C(=O)O)[C@@H](O)CC[C@@]21C)C5)C1=CC(C)(C)OC(C)(C)C1[C@@H]3O (stereo not given in full)"
  measurement.units: "p.p.m."
  qualifier.symbol: "="
  Activity: 10
- compound: "C=C(C)[C@H]1C(=O)c2c3c(cc4c5c(n1c24)[C@@]1(C)C(CC[C@H]2[C@](C)(/C=C/C=C(\\CCC)C(=O)NCC)[C@@H](O)CC[C@@]21C)C5)C1=CC(C)(C)OC(C)(C)C1[C@@H]3O (stereo in doubt; 45)"
  measurement.units: "p.p.m."
  qualifier.symbol: "="
  Activity: 1
- compound: "C=C(C)[C@H]1C(=O)c2c3c(cc4c5c(n1c24)[C@@]1(C)C(CC[C@H]2[C@](C)(/C=C/C=C(\\CC)C(=O)NC(C)(C)C)[C@@H](O)CC[C@@]21C)C5)C1=CC(C)(C)OC(C)(C)C1[C@@H]3O (stereo not given in full)"
  measurement.units: "p.p.m."
  qualifier.symbol: "="
  Activity: 1

###

System: Pulicinae
Assay: In vitro systemic flea efficacy using membrane feeding assay.
Format: functional
measurement.kind: Activity (p.p.m.)

- compound: "C=C(C)[C@H]1C(=O)c2c3c(cc4c5c(n1c24)[C@@]1(C)C(CC[C@H]2[C@](C)(/C=C/C=C(\\C(C)=O)C(=O)N(C)C)[C@@H](O)CC[C@@]21C)C5)C1=CC(C)(C)OC(C)(C)C1[C@@H]3O (stereo not given in full)"
  number: 1
- compound: "C=C(C)[C@H]1C(=O)c2c3c(cc4c5c(n1c24)[C@@]1(C)C(CC[C@H]2[C@](C)(/C=C/C=C/C(N)=O)[C@@H](O)CC[C@@]21C)C5)C1=CC(C)(C)OC(C)(C)C1[C@@H]3O (stereo not given in full)"
  number: 1
- compound: "C=C(C)[C@H]1C(=O)c2c3c(cc4c5c(n1c24)[C@@]1(C)C(CC[C@H]2[C@](C)(/C=C/C(C)=C/C(=O)O)[C@@H](O)CC[C@@]21C)C5)C1=CC(C)(C)OC(C)(C)C1[C@@H]3O (stereo not given in full)"
  number: 10
- compound: "C=C(C)[C@H]1C(=O)c2c3c(cc4c5c(n1c24)[C@@]1(C)C(CC[C@H]2[C@](C)(/C=C/C=C\\C(N)=O)[C@@H](O)CC[C@@]21C)C5)C1=CC(C)(C)OC(C)(C)C1[C@@H]3O (stereo not given in full)"
  number: 10
- compound: "C=C(C)[C@H]1C(=O)c2c3c(cc4c5c(n1c24)[C@@]1(C)C(CC[C@H]2[C@](C)(/C=C/C=C/C(=O)N(C)CC)[C@@H](O)CC[C@@]21C)C5)C1=CC(C)(C)OC(C)(C)C1[C@@H]3O (stereo not given in full)"
  number: 1

###

Listed here: items and their measured Activity.
Test system: Pulicinae
Assay: In vitro systemic flea efficacy using membrane feeding assay.
Assay type: functional

- molecule: "C=CCOC(=O)/C=C/C=C/[C@]1(C)[C@@H](O)CC[C@@]2(C)[C@H]1CCC1Cc3c(n4c5c(c6c(cc35)C3=CC(C)(C)OC(C)(C)C3[C@@H]6O)C(=O)[C@@H]4C(=C)C)[C@@]12C (stereo not given in full)"
  measurement.units: "p.p.m."
  qualifier.symbol: "="
  Activity: 1
- molecule: "C=C(C)[C@H]1C(=O)c2c3c(cc4c5c(n1c24)[C@@]1(C)C(CC[C@H]2[C@](C)(/C=C/C=C(\\CCC)C(=O)NC(C)(C)C)[C@@H](O)CC[C@@]21C)C5)C1=CC(C)(C)OC(C)(C)C1[C@@H]3O (stereo not given in full)"
  measurement.units: "p.p.m."
  qualifier.symbol: "="
  Activity: 10
- molecule: "C=CC/C(=C\\C=C\\[C@]1(C)[C@@H](O)CC[C@@]2(C)[C@H]1CCC1Cc3c(n4c5c(c6c(cc35)C3=CC(C)(C)OC(C)(C)C3[C@@H]6O)C(=O)[C@@H]4C(=C)C)[C@@]12C)C(=O)NC(C)(C)C (stereo not given in full)"
  measurement.units: "p.p.m."
  qualifier.symbol: "="
  Activity: 10
- molecule: "C=C(C)[C@H]1C(=O)c2c3c(cc4c5c(n1c24)[C@@]1(C)C(CC[C@H]2[C@](C)(/C=C/C=C(\\OC)C(=O)O)[C@@H](O)CC[C@@]21C)C5)C1=CC(C)(C)OC(C)(C)C1[C@@H]3O (stereo not given in full)"
  measurement.units: "p.p.m."
  qualifier.symbol: "="
  Activity: 10
- molecule: "C=C(C)[C@H]1C(=O)c2c3c(cc4c5c(n1c24)[C@@]1(C)C(CC[C@H]2[C@](C)(/C=C/C=C(\\CCC)C(=O)O)[C@@H](O)CC[C@@]21C)C5)C1=CC(C)(C)OC(C)(C)C1[C@@H]3O (stereo not given in full)"
  measurement.units: "p.p.m."
  qualifier.symbol: ">"
  Activity: 10
- molecule: "C=C(C)[C@H]1C(=O)c2c3c(cc4c5c(n1c24)[C@@]1(C)C(CC[C@H]2[C@](C)(/C=C/C=C(\\OC)C(=O)NCC)[C@@H](O)CC[C@@]21C)C5)C1=CC(C)(C)OC(C)(C)C1[C@@H]3O (stereo not given in full)"
  measurement.units: "p.p.m."
  qualifier.symbol: "="
  Activity: 10
- molecule: "C=C(C)[C@H]1C(=O)c2c3c(cc4c5c(n1c24)[C@@]1(C)C(CC[C@H]2[C@](C)(/C=C/C=C/C(=O)O)[C@@H](O)CC[C@@]21C)C5)C1=CC(C)(C)OC(C)(C)C1[C@@H]3O (stereo not given in full)"
  measurement.units: "p.p.m."
  qualifier.symbol: "="
  Activity: 10
- molecule: "C=C(C)[C@H]1C(=O)c2c3c(cc4c5c(n1c24)[C@@]1(C)C(CC[C@H]2[C@](C)(/C=C/C=C(\\C#N)c4nc6ccccc6[nH]4)[C@@H](O)CC[C@@]21C)C5)C1=CC(C)(C)OC(C)(C)C1[C@@H]3O (stereo not given in full)"
  measurement.units: "p.p.m."
  qualifier.symbol: "="
  Activity: 10
- molecule: "C=CC/C(=C\\C=C\\[C@]1(C)[C@@H](O)CC[C@@]2(C)[C@H]1CCC1Cc3c(n4c5c(c6c(cc35)C3=CC(C)(C)OC(C)(C)C3[C@@H]6O)C(=O)[C@@H]4C(=C)C)[C@@]12C)C(=O)OC (stereo not given in full)"
  measurement.units: "p.p.m."
  qualifier.symbol: "="
  Activity: 10
- molecule: "C=CC/C(=C\\C=C\\[C@]1(C)[C@@H](O)CC[C@@]2(C)[C@H]1CCC1Cc3c(n4c5c(c6c(cc35)C3=CC(C)(C)OC(C)(C)C3[C@@H]6O)C(=O)[C@@H]4C(=C)C)[C@@]12C)C(N)=O (stereo not given in full)"
  measurement.units: "p.p.m."
  qualifier.symbol: "="
  Activity: 1
